ASSAYED TARGET: Adenosine receptor A1 (Homo sapiens)
TEST: Activity at human recombinant adenosine A1 receptor expressed in CHO cells assessed as inhibition of forskolin-stimulated cAMP accumulation in presence of CPA at 10 uM relative to control
Format: functional, cell-based
Set-up: scale not given: the % may be the effect or the level left
Listing of recorded Activity by entry.
OBSERVABLE: Activity (%)

>>> recorded_number("Nc1sc2cnccc2c1C(=O)c1cccs1")
98
>>> recorded_number("Nc1sc2cnccc2c1C(=O)c1ccccc1Cl")
111
>>> recorded_number("Nc1sc2cnccc2c1C(=O)c1ccc(Br)cc1")
104
>>> recorded_number("Nc1sc2cnccc2c1C(=O)c1ccc(Cl)c(Cl)c1")
105
>>> recorded_number("Nc1sc2cnccc2c1C(=O)c1ccccc1")
100
>>> recorded_number("Cc1sc(N)c(C(=O)c2cccc(C(F)(F)F)c2)c1C")
52
>>> recorded_number("COc1ccc(C(=O)c2c(N)sc3cnccc23)cc1")
94
>>> recorded_number("Nc1sc2cnccc2c1C(=O)c1cccc2ccccc12")
66
>>> recorded_number("Nc1sc2cnccc2c1C(=O)c1ccc(Cl)cc1")
114
>>> recorded_number("Cc1ccc(C(=O)c2c(N)sc3cnccc23)cc1")
121
>>> recorded_number("Nc1sc2cnccc2c1C(=O)c1cccc(C(F)(F)F)c1")
63

---

ASSAYED TARGET: Adenosine receptor A1 (Homo sapiens)
Sequence (whole entry): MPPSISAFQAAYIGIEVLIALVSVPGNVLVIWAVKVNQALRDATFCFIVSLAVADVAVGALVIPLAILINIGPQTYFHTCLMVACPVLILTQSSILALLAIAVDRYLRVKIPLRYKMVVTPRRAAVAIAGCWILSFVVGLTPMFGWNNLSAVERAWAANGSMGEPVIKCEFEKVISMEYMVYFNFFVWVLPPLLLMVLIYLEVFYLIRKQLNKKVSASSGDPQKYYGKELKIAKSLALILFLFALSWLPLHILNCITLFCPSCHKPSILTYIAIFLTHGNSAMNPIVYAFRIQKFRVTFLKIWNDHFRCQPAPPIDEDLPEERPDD
TEST: Activity at human recombinant adenosine A1 receptor expressed in CHO cells assessed as inhibition of forskolin-stimulated cAMP accumulation in presence of CPA at 0.1 uM relative to control
Type: functional, cell-based
Design: scale not given: the % may be the effect or the level left
OBSERVABLE: Activity (%)

>>> recorded_number("Nc1sc2cnccc2c1C(=O)c1ccccc1")
89
>>> recorded_number("Nc1sc2cnccc2c1C(=O)c1ccccc1Cl")
98
>>> recorded_number("Nc1sc2cnccc2c1C(=O)c1cccs1")
104
>>> recorded_number("Nc1sc2cnccc2c1C(=O)c1cccc2ccccc12")
112
>>> recorded_number("Nc1sc2cnccc2c1C(=O)c1ccc(Cl)cc1")
102

---

Listing of recorded Activity by entry.
ASSAYED TARGET: Adenosine receptor A1 (Homo sapiens) (UniProt P30542)
Sequence (whole entry): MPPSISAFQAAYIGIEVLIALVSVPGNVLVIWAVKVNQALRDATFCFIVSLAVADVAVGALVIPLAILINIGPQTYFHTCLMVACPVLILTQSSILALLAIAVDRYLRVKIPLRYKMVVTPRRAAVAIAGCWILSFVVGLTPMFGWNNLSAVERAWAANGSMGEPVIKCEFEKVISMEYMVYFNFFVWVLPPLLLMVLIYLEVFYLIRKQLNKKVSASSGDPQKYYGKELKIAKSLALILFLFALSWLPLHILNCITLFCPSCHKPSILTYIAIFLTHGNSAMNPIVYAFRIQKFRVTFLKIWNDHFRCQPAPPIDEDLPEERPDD
TEST: Activity at human recombinant adenosine A1 receptor expressed in CHO cells assessed as inhibition of forskolin-stimulated cAMP accumulation in presence of CPA at 1 uM relative to control
Format: functional, cell-based
Set-up: scale not given: the % may be the effect or the level left
OBSERVABLE: Activity (%)

>>> recorded_number("Nc1sc2cnccc2c1C(=O)c1ccc(Cl)cc1")
96
>>> recorded_number("Nc1sc2cnccc2c1C(=O)c1ccccc1")
90
>>> recorded_number("Nc1sc2cnccc2c1C(=O)c1cccc2ccccc12")
107

meta.source: ChEMBL document CHEMBL1139691
